The compounds listed here are annotated with their Ki.
Molecular target: rat cloned 5-HT7 receptor (Rattus norvegicus)
Construct: purchased PerkinElmer-NEN; host or cells: HEK-293
Test: Radioligand binding assay ([3H]-LSD) at rat cloned 5-HT7Rs
Details: [3H]-LSD, rat recombinant 5-HT7R expressed in HEK-293 cells
quantity: Ki (nM)

                                    compound  recorded_number
 0  CSc1ccccc1N1CCN(CCCCCC(=O)NC2CCCc3ccccc32)CC1 (stereo not drawn)             0.22
 1  COc1ccc2c(c1)C(NC(=O)CCCN1CCN(c3ccccc3OC)CC1)CCC2 (stereo not drawn)              129
 2  COc1ccccc1N1CCN(CCC(=O)NC2CCCc3c(OC)cccc32)CC1 (stereo not drawn)              269
 3  COc1ccc2c(c1)CCCC2NC(=O)CCCN1CCN(c2ccccc2OC)CC1 (stereo not drawn)              186
 4  CC(=O)c1ccccc1N1CCN(CCCCCC(=O)NC2CCCc3ccccc32)CC1 (stereo not drawn)             4.14
 5  COc1ccc2c(c1)C(NC(=O)CCCCCN1CCN(c3ccccc3OC)CC1)CCC2 (stereo not drawn)               41
 6  COc1ccccc1N1CCN(CCCCC(=O)NC2CCCc3c(OC)cccc32)CC1 (stereo not drawn)             28.2
 7  COc1ccc2c(c1)C(NC(=O)CCCCN1CCN(c3ccccc3OC)CC1)CCC2 (stereo not drawn)             38.4
 8  CC(=O)c1ccc(N2CCN(CCCCCC(=O)NC3CCCc4ccccc43)CC2)cc1 (stereo not drawn)             2640
 9  COc1ccccc1N1CCN(CCCC(=O)NC2CCCc3c(OC)cccc32)CC1 (stereo not drawn)               35
10  COc1cccc(N2CCN(CCCCCC(=O)NC3CCCc4ccccc43)CC2)c1 (stereo not drawn)              119
11  O=C(CCCCCN1CCN(c2ccccc2Cl)CC1)NC1CCCc2ccccc21 (stereo not drawn)             40.1
12  COc1ccccc1N1CCN(CCCCC(=O)NC2CCCc3cccc(OC)c32)CC1 (stereo not drawn)               64
13  N#Cc1ccc(N2CCN(CCCCCC(=O)NC3CCCc4ccccc43)CC2)cc1 (stereo not drawn)             1400
14  NCCc1c[nH]c2ccc(C(N)=O)cc12 [5-CT, reference compound]             0.51
15  O=C(CCCCCN1CCN(c2ccccc2O)CC1)NC1CCCc2ccccc21 (stereo not drawn)             11.4
16  COc1ccc(OC)c(N2CCN(CCCCCC(=O)NC3CCCc4ccccc43)CC2)c1 (stereo not drawn)             70.3
17  Cc1ccccc1N1CCN(CCCCCC(=O)NC2CCCc3ccccc32)CC1 (stereo not drawn)             15.2

###

Measured log10 of Ki, listed per entry.
Target: rat cloned 5-HT7 receptor (Rattus norvegicus, UniProt P32305)
Construct: purchased PerkinElmer-NEN; host or cells: HEK-293
Sequence (P32305 whole entry): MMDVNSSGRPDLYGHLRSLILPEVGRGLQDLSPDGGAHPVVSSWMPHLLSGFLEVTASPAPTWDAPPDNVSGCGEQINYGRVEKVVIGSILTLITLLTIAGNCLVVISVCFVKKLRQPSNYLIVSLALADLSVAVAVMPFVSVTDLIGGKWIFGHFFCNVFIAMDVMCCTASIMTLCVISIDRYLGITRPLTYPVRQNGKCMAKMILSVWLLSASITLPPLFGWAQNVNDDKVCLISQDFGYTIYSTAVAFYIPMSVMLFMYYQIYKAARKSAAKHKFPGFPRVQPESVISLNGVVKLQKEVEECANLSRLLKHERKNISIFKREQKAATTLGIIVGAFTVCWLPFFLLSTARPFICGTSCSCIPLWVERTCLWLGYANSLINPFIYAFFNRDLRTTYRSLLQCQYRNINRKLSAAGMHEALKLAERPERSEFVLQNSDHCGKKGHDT
Test: Radioligand binding assay ([3H]-LSD) at rat cloned 5-HT7Rs
Conditions: [3H]-LSD, rat recombinant 5-HT7R expressed in HEK-293 cells
quantity: log10 of Ki (log10 of the value in nM)

                                    compound  recorded_number
 0  N#Cc1cccc(N2CCN(CCCCCC(=O)NC3CCCc4ccccc43)CC2)c1 (centres unmarked) [Compound 39]             1.99
 1  O=C(CCCCCN1CCN(c2ccccc2)CC1)NC1CCCc2ccccc21 (centres unmarked) [Compound 50]             1.82
 2  COc1ccccc1N1CCN(CCCC(=O)NC2CCCc3cccc(OC)c32)CC1 (centres unmarked) [Compound 23]             2.19
 3  COc1ccccc1N1CCN(CCCCC(=O)NC2CCCc3ccccc32)CC1 (centres unmarked) [Compound 27]             0.78
 4  COc1ccc2c(c1)CCCC2NC(=O)CCCCCN1CCN(c2ccccc2OC)CC1 (centres unmarked) [Compound 19]             1.48
 5  COc1ccccc1N1CCN(CCCCCC(=O)NC2CCCc3c(OC)cccc32)CC1 (centres unmarked) [Compound 16]             1.30
 6  COc1cc(Cl)ccc1N1CCN(CCCCCC(=O)NC2CCCc3ccccc32)CC1 (centres unmarked) [Compound 35]             2.09
 7  COc1ccccc1N1CCN(CCCCCC(=O)NC2CCCc3cccc(OC)c32)CC1 (centres unmarked) [Compound 25]             1.50
 8  COc1ccccc1N1CCN(CCCC(=O)NC2CCCc3ccccc32)CC1 (centres unmarked) [Compound 26]             1.96
 9  CS(=O)(=O)c1ccccc1N1CCN(CCCCCC(=O)NC2CCCc3ccccc32)CC1 (centres unmarked) [Compound 45]             2.47
10  COc1ccc2c(c1)CCCC2NC(=O)CCCCN1CCN(c2ccccc2OC)CC1 (centres unmarked) [Compound 18]             1.63
